B1: Tyrosine-protein kinase Lck, residues 63 to 120; numbered along this chain, P06239 (parent)
chain: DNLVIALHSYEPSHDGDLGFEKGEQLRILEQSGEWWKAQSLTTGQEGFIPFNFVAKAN

variants of: B1; test: abundance fitness (aPCA) (normalised: wild type 0, dead -1); higher = more abundant; growth selection in yeast, the domain comes from the species named; conditions: Homo sapiens
Would you mind labelling by abundance fitness? At or over -0.2 is 1.0, under is 0.0.

Check if abundance fitness >= -0.2 (inclusive). Item: K37C
0.0

Check if abundance fitness >= -0.2 (inclusive). Item: S9H
0.0

Check if abundance fitness >= -0.2 (inclusive). Item: G47E
0.0

Check if abundance fitness >= -0.2 (inclusive). Item: T42R
1.0

Check if abundance fitness >= -0.2 (inclusive). Item: G16V
0.0

Check if abundance fitness >= -0.2 (inclusive). Item: I49C
0.0

Check if abundance fitness >= -0.2 (inclusive). Item: H14C
1.0

Check if abundance fitness >= -0.2 (inclusive). Item: N2C
0.0

Check if abundance fitness >= -0.2 (inclusive). Item: F53M
1.0

Check if abundance fitness >= -0.2 (inclusive). Item: N52V
0.0

Check if abundance fitness >= -0.2 (inclusive). Item: E11K
1.0

Check if abundance fitness >= -0.2 (inclusive). Item: A38R
0.0

Check if abundance fitness >= -0.2 (inclusive). Item: H8Q
1.0

Check if abundance fitness >= -0.2 (inclusive). Item: G44P
0.0

Check if abundance fitness >= -0.2 (inclusive). Item: E24L
0.0

Check if abundance fitness >= -0.2 (inclusive). Item: S9A
0.0

Check if abundance fitness >= -0.2 (inclusive). Item: W36L
1.0

Check if abundance fitness >= -0.2 (inclusive). Item: E24D
1.0

Check if abundance fitness >= -0.2 (inclusive). Item: G33H
0.0

Check if abundance fitness >= -0.2 (inclusive). Item: G19W
0.0

Check if abundance fitness >= -0.2 (inclusive). Item: S9G
1.0

Check if abundance fitness >= -0.2 (inclusive). Item: W36G
0.0

Check if abundance fitness >= -0.2 (inclusive). Item: G19E
0.0

Check if abundance fitness >= -0.2 (inclusive). Item: K37I
1.0

Check if abundance fitness >= -0.2 (inclusive). Item: K22L
0.0

Check if abundance fitness >= -0.2 (inclusive). Item: A55N
0.0

Check if abundance fitness >= -0.2 (inclusive). Item: V54W
0.0

Check if abundance fitness >= -0.2 (inclusive). Item: A38E
0.0

Check if abundance fitness >= -0.2 (inclusive). Item: L41K
0.0

Check if abundance fitness >= -0.2 (inclusive). Item: G16S
1.0

Check if abundance fitness >= -0.2 (inclusive). Item: F20R
0.0

Check if abundance fitness >= -0.2 (inclusive). Item: R27I
1.0

Check if abundance fitness >= -0.2 (inclusive). Item: L18M
0.0

Check if abundance fitness >= -0.2 (inclusive). Item: K22W
0.0

Check if abundance fitness >= -0.2 (inclusive). Item: S40L
0.0

Check if abundance fitness >= -0.2 (inclusive). Item: E46Q
1.0

Check if abundance fitness >= -0.2 (inclusive). Item: T43G
0.0

Check if abundance fitness >= -0.2 (inclusive). Item: T43V
0.0

Check if abundance fitness >= -0.2 (inclusive). Item: E46F
0.0

Check if abundance fitness >= -0.2 (inclusive). Item: S40V
0.0

Check if abundance fitness >= -0.2 (inclusive). Item: N52F
0.0

Check if abundance fitness >= -0.2 (inclusive). Item: T43F
0.0

Check if abundance fitness >= -0.2 (inclusive). Item: A6E
0.0

Check if abundance fitness >= -0.2 (inclusive). Item: E46V
1.0

Check if abundance fitness >= -0.2 (inclusive). Item: H8C
1.0

Check if abundance fitness >= -0.2 (inclusive). Item: F51N
1.0

Check if abundance fitness >= -0.2 (inclusive). Item: S9I
0.0

Check if abundance fitness >= -0.2 (inclusive). Item: D15T
1.0

Check if abundance fitness >= -0.2 (inclusive). Item: L18V
0.0

Check if abundance fitness >= -0.2 (inclusive). Item: T43P
0.0

Check if abundance fitness >= -0.2 (inclusive). Item: L29K
0.0

Check if abundance fitness >= -0.2 (inclusive). Item: Y10V
0.0

Check if abundance fitness >= -0.2 (inclusive). Item: A55R
1.0

Check if abundance fitness >= -0.2 (inclusive). Item: G33N
1.0

Check if abundance fitness >= -0.2 (inclusive). Item: D17M
1.0

Check if abundance fitness >= -0.2 (inclusive). Item: Q25P
0.0

Check if abundance fitness >= -0.2 (inclusive). Item: E11N
1.0

Check if abundance fitness >= -0.2 (inclusive). Item: T43Q
0.0

Check if abundance fitness >= -0.2 (inclusive). Item: K56G
1.0

Check if abundance fitness >= -0.2 (inclusive). Item: W36D
0.0

Check if abundance fitness >= -0.2 (inclusive). Item: S9F
0.0

Check if abundance fitness >= -0.2 (inclusive). Item: L7P
0.0

Check if abundance fitness >= -0.2 (inclusive). Item: F48R
1.0

Check if abundance fitness >= -0.2 (inclusive). Item: Q39T
0.0

Check if abundance fitness >= -0.2 (inclusive). Item: D17P
0.0

Check if abundance fitness >= -0.2 (inclusive). Item: L18D
0.0

Check if abundance fitness >= -0.2 (inclusive). Item: F51Q
1.0

Check if abundance fitness >= -0.2 (inclusive). Item: P12H
0.0

Check if abundance fitness >= -0.2 (inclusive). Item: E24Y
0.0

Check if abundance fitness >= -0.2 (inclusive). Item: F20C
0.0

Check if abundance fitness >= -0.2 (inclusive). Item: W35C
1.0

Check if abundance fitness >= -0.2 (inclusive). Item: L18Q
0.0

Check if abundance fitness >= -0.2 (inclusive). Item: F51G
1.0

Check if abundance fitness >= -0.2 (inclusive). Item: L41N
0.0

Check if abundance fitness >= -0.2 (inclusive). Item: F51V
1.0

Check if abundance fitness >= -0.2 (inclusive). Item: Q39G
0.0

Check if abundance fitness >= -0.2 (inclusive). Item: K37Q
0.0

Check if abundance fitness >= -0.2 (inclusive). Item: V54A
0.0

Check if abundance fitness >= -0.2 (inclusive). Item: K22A
1.0

Source listed as the Human Domainome abundance scans (Beltran et al. 2025).
